Test system: Streptococcus pyogenes
Experiment: Inhibition of Streptococcus pyogenes IdeS assessed as blockade of enzyme-mediated degradation of human polyclonal immunoglobulin G by SDS-PAGE method
Calls of active or inactive are those of the source. No cut-off for these calls is given here.
quantity kind: Activity

Guide cases for Activity, answers given:
compound: Cc1ccc(S(=O)(=O)NC(CC=O)C(C)C)cc1 (single isomer, unassigned)
Activity: Active

compound: CCCC[C@@H](CN=[N+]=[N-])NS(=O)(=O)c1ccc(C)cc1
Activity: Active

compound: Cc1ccc(S(=O)(=O)N2C[C@@H]2C(C)C)cc1 (stereo partly specified)
Activity: inactive

compound: Cc1ccc(S(=O)(=O)N[C@@H](CCCCN)CN=[N+]=[N-])cc1
Activity: inactive

compound: Cc1ccc(S(=O)(=O)N[C@H](CN=[N+]=[N-])Cc2ccccc2)cc1
Activity: Active

compound: CCCC[C@@H](CC#N)NS(=O)(=O)c1ccc(C)cc1
Activity: Active

compound: Cc1ccc(S(=O)(=O)N[C@H](CO)C(C)C)cc1
Activity: inactive

compound: Cc1ccc(S(=O)(=O)N[C@@H](Cc2ccccc2)C(=O)CCl)cc1
Activity: Active

Count: 3. Required value per item: Activity.
1. CCCC[C@H]1CN1S(=O)(=O)c1ccc(C)cc1 (stereo partly specified)
2. Cc1ccc(S(=O)(=O)N[C@H](CO)Cc2ccccc2)cc1
3. Cc1ccc(S(=O)(=O)N[C@H](CN=[N+]=[N-])C(C)C)cc1

1: inactive; 2: inactive; 3: Active
